# STUDY TARGET: HLA-A*26:01
# PROTOCOL TEXT: IEDB peptide-MHC binding, purified MHC/direct/fluorescence; filed as Kd, often an IC50 or EC50 that approximates it; bounds were set here for any values at or beyond the usual limits of such assays
# SETUP CONDITIONS: source organism: Vibrio vulnificus
MEASURED QUANTITY: Kd

Task: GET /values?readout=Kd&item= KVMALPIPH
Output: ≥ 20 µM

* * *

# STUDY TARGET: HLA-B*15:01
# PROTOCOL TEXT: IEDB peptide-MHC binding, purified MHC/competitive/fluorescence; filed as Kd, often an IC50 or EC50 that approximates it; bounds were set here for any values at or beyond the usual limits of such assays
# SETUP CONDITIONS: source organism: Vibrio parahaemolyticus K5030
MEASURED QUANTITY: Kd

Task: Record lookup: for HLA-B*15:01, what Kd belongs to AGGWVLWKV ?
Output: ≥ 20 µM

These entries and their values trace back to the Immune Epitope Database (IEDB).
